Values were extracted from ChEMBL document CHEMBL1144182.

- assay_summary: Cytotoxicity against mock-infected human MT4 cells assessed as reduction in cell viability after 96 hrs by MTT assay
- Format: cell-based
observation_type: CC50 at 96 h (µM)
A number alone suffices; assume µM.

Worked set:
smiles_record=c1ccc2c(/N=N\C3=C4CCCCN4CCC3)cccc2c1 val=12
smiles_record=C(/N=N/c1ccccc1)=C1/CCCN1Cc1ccccc1 val=22
smiles_record=Clc1ccc(N2CCN(/C=C/N=N/c3ccccc3)CC2)cc1 val=21
smiles_record=O=[N+]([O-])c1cc(/N=N\C2=C3CCCCN3CCC2)ccc1Cl val=33
smiles_record=CN1C=C(/N=N/c2ccc(Br)cc2)CCC1 val=83
smiles_record=CN1CCC/C1=C\N=N\c1ccc(Cl)c(Cl)c1 val=39

Q: GET /values?readout=CC50 at 96 h&item= FC(F)(F)c1cc(/N=N\C2=C3CCCCN3CCC2)cc(C(F)(F)F)c1
A: 34

Q: Please report the recorded CC50 at 96 h for Fc1ccc(N2CCN(/C=C/N=N/c3ccccc3)CC2)cc1 .
A: 17

Q: Would you kindly share the measured CC50 at 96 h for O=[N+]([O-])c1ccc(N2CCN(/C=C/N=N/c3ccccc3)CC2)cc1 ?
A: 41

Q: So what's the measured CC50 at 96 h for this one? Brc1cccc(/N=N\C2=C3CCCCN3CCC2)c1
A: 9

Q: What value of measured CC50 at 96 h is listed for c1ccc2c(N=NC3=C4CCCN4CCC3)nncc2c1 ?
A: 52
